- ASSAY DETAILS: AUCinfinity in Sprague-Dawley rat at 5 mg/kg, po
- Type: ADME, organism-based
- Parameters: time infinity, dose 5 mg/kg, route po
- EXPERIMENTAL CONDITIONS: in vivo
MEASURE NAME: AUC(0-inf) (µg·h/mL)

>  <MOLECULE>
OC[C@H]1O[C@@H](c2cc(Cc3ccc(C4CC4)cc3)c(Cl)c3c2CCO3)[C@H](O)[C@@H](O)[C@@H]1O [ENAVOGLIFLOZIN]

>  <READING UNIT>
µg·h/mL

>  <AUC(0-inf)>
16.2

$$$$
>  <MOLECULE>
CCOc1ccc(Cc2cc([C@@H]3O[C@H](CO)[C@@H](O)[C@H](O)[C@H]3O)ccc2Cl)cc1 [DAPAGLIFLOZIN]

>  <READING UNIT>
µg·h/mL

>  <AUC(0-inf)>
13.3

$$$$

# credit: ChEMBL document CHEMBL5143532
